- Assay notes: Inhibition of Trichomonas vaginalis adenosine-guanosine preferring ribohydrolase after 40 mins in presence of 0.01% triton X-100
Metric: IC50 (µM)
Numbers only, in µM.

Below, 2 molecules whose answers are already recorded.
Molecule	IC50 / µM
C[C@@H]1O[C@@H](OC[C@H]2O[C@@H](Oc3c(-c4ccc(O)c(O)c4)oc4cc(O)cc(O)c4c3=O)[C@H](O)[C@@H](O)[C@@H]2O)[C@H](O)[C@H](O)[C@H]1O	17.3
O=c1c(O[C@@H]2O[C@H](CO)[C@H](O)[C@H](O)[C@H]2O)c(-c2ccc(O)c(O)c2)oc2cc(O)cc(O)c12 [HYPEROSIDE]	4

Kindly consider the entry below.
Which IC50 is reported for this molecule? "O=c1c(O[C@@H]2O[C@H](CO)[C@@H](O)[C@H](O)[C@H]2O)c(-c2ccc(O)c(O)c2)oc2cc(O)cc(O)c12"
0.9

----------
- Assay notes: Inhibition of Trichomonas vaginalis adenosine-guanosine preferring ribohydrolase after 40 mins
Metric: IC50 (µM)
Numbers only, in µM.

Compound	Metric	Measured
O=C1c2c(O)cc(O)cc2O[C@H](c2ccc(O)c(O)c2)[C@H]1O [(+)-TAXIFOLIN]	IC50	9.3
OC[C@H]1O[C@@H](n2cnc3c(NC4CCCC4)nc(Cl)nc32)[C@H](O)[C@@H]1O	IC50	9.8

Working through the 2 compounds below one at a time, give IC50 for each.
1. O=C1c2c(O)cc(O)cc2OC(c2ccc(O)c(O)c2)C1O (racemic)
2. O=c1c(O[C@@H]2O[C@H](CO)[C@@H](O)[C@H](O)[C@H]2O)c(-c2ccc(O)c(O)c2)oc2cc(O)cc(O)c12

1. 5.9
2. 0.3

----------
- Assay notes: Inhibition of Trichomonas vaginalis adenosine-guanosine preferring ribohydrolase after 40 mins in presence of 0.01% triton X-100
Please provide measured pIC50 for the entries that follow.
Answers are plain numbers, as −log10 of the molar value.

The cases that follow already have their pIC50 on record.
Compound	Measured
O=C1c2c(O)cc(O)cc2OC(c2ccc(O)c(O)c2)C1O (racemic) [TAXIFOLIN]	4.90
O=C1c2c(O)cc(O)cc2O[C@H](c2ccc(O)c(O)c2)[C@H]1O [(+)-TAXIFOLIN]	4.47
OC[C@H]1O[C@@H](n2cnc3c(NC4CCCC4)nc(Cl)nc32)[C@H](O)[C@@H]1O	4.93

Next:
Entry Cc1ccc(NC(=O)c2ccc(CN3CCN(C)CC3)cc2)cc1Nc1nccc(-c2cccnc2)n1 [IMATINIB] : reported pIC50 = ?
5.46

----------
Exercise: state measured IC50 for each of the compounds provided.
- Assay notes: Inhibition of Trichomonas vaginalis adenosine-guanosine preferring ribohydrolase after 40 mins
Numbers only, in µM.

For every item in the list below, what is its measured IC50?
1. COc1ccccc1OCCNCC(O)COc1cccc2[nH]c3ccccc3c12 (centres undefined) [CARVEDILOL]
2. C[C@@H]1O[C@@H](OC[C@H]2O[C@@H](Oc3c(-c4ccc(O)c(O)c4)oc4cc(O)cc(O)c4c3=O)[C@H](O)[C@@H](O)[C@@H]2O)[C@H](O)[C@H](O)[C@H]1O [RUTIN]
3. O=c1c(O[C@@H]2O[C@H](CO)[C@H](O)[C@H](O)[C@H]2O)c(-c2ccc(O)c(O)c2)oc2cc(O)cc(O)c12 [HYPEROSIDE]

[10.4, 10.2, 2.2]

What measured IC50 goes with Cc1ccc(NC(=O)c2ccc(CN3CCN(C)CC3)cc2)cc1Nc1nccc(-c2cccnc2)n1 [IMATINIB] ?
1.8
